Value source: patent US8686028B2

# Test description: Pharmacokinetic studies in Sprague Dawley rats
# Assay type: in vivo
# Protocol conditions: rat, plasma, SD rats, oral dose of 5 mg/kg, read-out: elimination half life (T1/2) (converted)
Measurement label: half-life (h)

INSERT INTO results (compound, measurement_label, numeric_readout) VALUES
  ('Oc1ccc2c(c1)OCC1c3ccccc3OC21 (stereo not shown)', 'half-life', 2.5);

* * *

Measured melting point by item
Measurement label: melting point

INSERT INTO results (molecule, result) VALUES
  ('c1ccc2c(c1)OC1c3ccc(OCCN4CCCCC4)cc3OCC21 (stereo not drawn) [Compound S-008-0399]', '202 to 204 °C'),
  ('Cc1c(O)ccc2c1OCC1c3ccccc3OC21 (stereo not drawn) [Compound S007-1499]', '160 to 162 °C'),
  ('Oc1ccc2c(c1)OCC1c3ccccc3OC21 (stereo not drawn) [Compound S006-1709]', '148 to 152 °C');

* * *

# System: Calvarial osteoblast cells
# Test description: MTT cell proliferation assay
# Format: cell-based, rat
# Protocol conditions: 10^−10 M to 10^−6M, 24 hrs
Measurement label: effect on osteoblast proliferation (MTT)

INSERT INTO results (compound_structure_string, measured_on, measurement_label, result) VALUES
  ('O=c1c(-c2ccccc2O)coc2cc(O)ccc12', 'Calvarial osteoblast cells', 'effect on osteoblast proliferation (MTT)', 'did not have any effect'),
  ('COc1ccc(-c2coc3cc(O)ccc3c2=O)c(O)c1', 'Calvarial osteoblast cells', 'effect on osteoblast proliferation (MTT)', 'did not have any effect'),
  ('COc1ccc(-c2coc3cc(O)ccc3c2=O)c(OC)c1', 'Calvarial osteoblast cells', 'effect on osteoblast proliferation (MTT)', 'did not have any effect');

* * *

Measured melting point by item
Measurement label: melting point

INSERT INTO assay_data (compound, result) VALUES
  ('COc1ccccc1-c1coc2cc(O)c(Cl)cc2c1=O', '228 to 230 °C'),
  ('COc1ccccc1-c1coc2c(O)c(O)ccc2c1=O', '220 to 222 °C'),
  ('COc1ccc(-c2coc3cc(O)ccc3c2=O)c(O)c1', '210 to 212 °C'),
  ('Cc1c(O)ccc2c(=O)c(-c3ccccc3O)coc12', '196 to 198 °C'),
  ('O=c1c(-c2ccccc2O)coc2cc(O)c(Cl)cc12', '> 250 °C'),
  ('C=CCOc1ccc2c(c1)OCC1c3ccccc3OC21 (stereo not drawn)', '72 to 74 °C'),
  ('O=c1c(-c2ccccc2O)coc2cc(O)ccc12', '196 to 198 °C'),
  ('CC(C)Oc1ccc2c(c1)OCC1c3ccccc3OC21 (stereo not drawn)', '96 to 98 °C'),
  ('O=c1c(-c2ccccc2O)coc2c(O)c(O)ccc12', '240 to 242 °C');

* * *

# Test description: Pharmacokinetic studies in Sprague Dawley rats
# Format: in vivo
# Protocol conditions: rat, plasma, SD rats, oral dose of 5 mg/kg, read-out: time to achieve maximum plasma concentration (tmax) (converted)
Measurement label: Tmax

INSERT INTO measurements (molecule, measurement_label, result) VALUES
  ('Oc1ccc2c(c1)OCC1c3ccccc3OC21 (stereo not shown)', 'Tmax', '15 min');

* * *

# Test description: Pharmacokinetic studies in Sprague Dawley rats
# Format: in vivo
# Protocol conditions: rat, plasma, SD rats, oral dose of 5 mg/kg, read-out: Maximum plasma concentration (Cmax)
Measurement label: Cmax (ng/mL)

INSERT INTO results (molecule, numeric_readout) VALUES
  ('Oc1ccc2c(c1)OCC1c3ccccc3OC21 (stereo not shown)', 17.5);
